Target: c-Kit(V654A) (Homo sapiens, UniProt P10721, V654A)
Construct: recombinant human c-Kit, amino acids 544-end containing the V654A mutation; GST (N)
Sequence (P10721 544-976 V654A): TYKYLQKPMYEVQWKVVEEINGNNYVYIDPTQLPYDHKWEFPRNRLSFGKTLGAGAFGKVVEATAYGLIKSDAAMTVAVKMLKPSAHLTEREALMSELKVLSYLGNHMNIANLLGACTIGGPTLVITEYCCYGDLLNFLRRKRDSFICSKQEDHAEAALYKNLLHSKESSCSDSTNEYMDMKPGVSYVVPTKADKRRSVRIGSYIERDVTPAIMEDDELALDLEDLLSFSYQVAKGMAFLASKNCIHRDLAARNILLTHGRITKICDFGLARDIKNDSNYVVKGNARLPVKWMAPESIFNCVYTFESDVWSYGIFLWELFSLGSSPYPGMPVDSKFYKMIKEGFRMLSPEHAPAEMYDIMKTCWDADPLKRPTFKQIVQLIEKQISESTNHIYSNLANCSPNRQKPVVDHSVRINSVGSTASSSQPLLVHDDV
Assay: c-Kit(V654A) assay (33P-ATP filter binding kinase assay)
Type: biochemical
Conditions: recombinant human c-Kit aa 544-end V654A, ATP 200 μM
METRIC: IC50 (nM)

MOLECULE	RESULT VALUE
CN1CC(F)(COc2ccn3c(-c4cc(NCc5ccc(-c6cnn(C)c6)cc5)ncn4)cnc3c2)C1 [A256]	12
Cn1cc(-c2ccc(CNc3cc(-c4cnc5cc(OCCCN6CCC6)ccn45)ncn3)cc2)cn1 [A102]	9.8
CN1CCN(CCOc2ccn3c(-c4cc(NCc5ccc(-c6cnn(C)c6)cc5)ncn4)cnc3c2)CCC1=O [A219]	11
CN1CC(COc2ccn3c(-c4cc(NCc5ccc(-c6cnn(C)c6)cc5)ncn4)cnc3c2)C1 [A144]	5.1
Cc1cc(N2CC[C@H](F)C2)ncc1CNc1cc(-c2cnc3ccccn23)ncn1 [A155]	92

A = COc1ccn2c(-c3cc(NCc4ccc(N5CCCCC5=O)cc4)ncn3)cnc2c1 [A12]
B = Cn1cc(-c2ccc(CNc3cc(-c4cnc5cc(OCCN6CCC6)ccn45)ncn3)cc2)cn1 [A99]
Consider entries A and B . Which has the numerically lower IC50? Identify your pick by its label.
B
(B: 8.2 nM, A: 87 nM)

---

Biological target: GIST430/654 cell line expressing mutated constitutively active cKIT receptor tyrosine kinase (Δ560-576 deletion and V654A point mutation) (Homo sapiens, UniProt P10721, DEL560-576/V654A)
Construct: endogenous in cells
Sequence (P10721 with tags, fused parts or gaps DEL560-576/V654A): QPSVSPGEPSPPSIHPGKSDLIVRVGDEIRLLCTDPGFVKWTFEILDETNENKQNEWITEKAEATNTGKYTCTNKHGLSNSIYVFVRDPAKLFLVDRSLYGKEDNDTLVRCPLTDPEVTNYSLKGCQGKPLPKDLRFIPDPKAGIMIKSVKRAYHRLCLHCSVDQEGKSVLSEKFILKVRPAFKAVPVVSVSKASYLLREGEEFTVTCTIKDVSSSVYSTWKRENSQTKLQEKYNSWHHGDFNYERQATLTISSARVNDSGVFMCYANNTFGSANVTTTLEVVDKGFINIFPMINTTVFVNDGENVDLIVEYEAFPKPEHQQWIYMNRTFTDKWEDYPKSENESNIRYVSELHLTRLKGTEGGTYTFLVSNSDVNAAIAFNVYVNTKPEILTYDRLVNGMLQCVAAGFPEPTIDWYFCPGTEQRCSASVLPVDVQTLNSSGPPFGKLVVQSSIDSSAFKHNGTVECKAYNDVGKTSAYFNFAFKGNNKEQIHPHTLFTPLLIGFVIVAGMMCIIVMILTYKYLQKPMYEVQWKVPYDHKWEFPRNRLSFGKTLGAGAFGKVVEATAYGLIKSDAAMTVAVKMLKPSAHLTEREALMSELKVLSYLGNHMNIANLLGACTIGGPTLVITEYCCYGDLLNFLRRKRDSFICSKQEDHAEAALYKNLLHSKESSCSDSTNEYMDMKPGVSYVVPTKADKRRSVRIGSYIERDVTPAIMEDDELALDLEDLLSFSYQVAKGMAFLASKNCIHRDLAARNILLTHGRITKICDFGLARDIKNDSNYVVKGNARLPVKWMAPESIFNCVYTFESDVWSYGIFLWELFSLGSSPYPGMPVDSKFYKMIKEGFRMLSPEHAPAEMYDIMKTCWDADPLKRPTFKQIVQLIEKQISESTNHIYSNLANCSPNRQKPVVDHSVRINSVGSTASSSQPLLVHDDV
Assay: Cellular cKIT autophosphorylation (phospho-Y307-cKIT, Luminex bead assay) in GIST430/654 cells
Settings: compounds 45 min, read-out: GIST 430/654 IC50
METRIC: IC50 (nM)

1 = COc1ccn2c(-c3cc(NCc4ccc(-c5cn(C)nn5)cc4)ncn3)cnc2c1
2 = Cn1cc(-c2ccc(CNc3cc(-c4cnc5cc(OCC6CCN(CC#N)CC6)ccn45)ncn3)cc2)cn1
Could you point out whether the larger IC50 belongs to 1 or to 2 ? Identify your pick by its label.
1

A = COc1ccn2c(-c3cc(NCc4ccc(N5CC6CCC(C5)O6)cc4)ncn3)cnc2c1
B = c1ccn2c(-c3cc(NCc4ccc(N5CC6CC6C5)nc4)ncn3)cnc2c1 (centres unmarked)
Could you point out whether the larger IC50 belongs to A or to B ? Identify your pick by its label.
A
(A: 710 nM, B: 270 nM)

---

Target: GIST430 cell line expressing constitutive active cKIT receptor tyrosine kinase (Δ560-576 deletion) (Homo sapiens, UniProt P10721, DEL560-576)
Construct: endogenous in cells; host or cells: GIST430 cells
Sequence (P10721 with tags, fused parts or gaps DEL560-576): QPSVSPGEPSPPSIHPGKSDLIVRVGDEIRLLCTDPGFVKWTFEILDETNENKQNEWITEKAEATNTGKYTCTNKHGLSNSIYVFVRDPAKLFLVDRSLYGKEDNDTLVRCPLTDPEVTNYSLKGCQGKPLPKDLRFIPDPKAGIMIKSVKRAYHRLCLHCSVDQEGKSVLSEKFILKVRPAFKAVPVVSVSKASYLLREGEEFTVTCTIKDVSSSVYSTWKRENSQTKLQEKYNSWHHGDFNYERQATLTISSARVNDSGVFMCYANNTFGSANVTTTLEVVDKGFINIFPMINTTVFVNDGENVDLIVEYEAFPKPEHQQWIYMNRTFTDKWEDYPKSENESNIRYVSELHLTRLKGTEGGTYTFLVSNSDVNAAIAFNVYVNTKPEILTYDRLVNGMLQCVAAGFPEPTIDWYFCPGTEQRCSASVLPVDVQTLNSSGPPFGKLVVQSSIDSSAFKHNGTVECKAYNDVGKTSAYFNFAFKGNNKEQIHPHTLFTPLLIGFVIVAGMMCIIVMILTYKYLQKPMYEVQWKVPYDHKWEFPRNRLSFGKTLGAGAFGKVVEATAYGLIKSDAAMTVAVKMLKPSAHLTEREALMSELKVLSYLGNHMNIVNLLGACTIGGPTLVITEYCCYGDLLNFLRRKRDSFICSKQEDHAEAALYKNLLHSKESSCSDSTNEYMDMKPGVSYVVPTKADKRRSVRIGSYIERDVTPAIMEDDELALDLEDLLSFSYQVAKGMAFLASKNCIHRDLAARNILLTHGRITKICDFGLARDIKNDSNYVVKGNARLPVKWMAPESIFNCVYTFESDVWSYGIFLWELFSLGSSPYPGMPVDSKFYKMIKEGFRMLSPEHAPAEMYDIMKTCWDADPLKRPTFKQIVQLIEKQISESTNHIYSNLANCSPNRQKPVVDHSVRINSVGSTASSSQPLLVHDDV
Experiment: Cellular cKIT autophosphorylation (phospho-Y307-cKIT, Luminex bead assay) in GIST430 cells
Type: cell-based
Details: cKIT autophosphorylation, GIST430 cells, compounds 45 min; read-out: GIST 430 IC50
pIC50: −log10 of the molar value.
METRIC: pIC50

Cc1cn(-c2ccn3c(-c4cc(NCc5ccc(-c6cnn(C)c6)cc5)ncn4)cnc3c2)cn1 8.77

A = Cn1cc(-c2ccc(CNc3cc(-c4cnc5cc(OCCN6CCOCC6)ccn45)ncn3)cc2)cn1
B = COc1ccn2c(-c3cc(NCc4ccc(-n5ccnn5)cc4)ncn3)cnc2c1
Consider entries A and B . Which has the numerically lower pIC50? Identify your pick by its label.
B
(B: 8.14, A: 8.41)

a = F[C@@H]1CCN(c2ccc(CNc3cc(-c4cnc5ccccn45)ncn3)cn2)C1
b = Cn1ncc(-c2ccc(CNc3cc(-c4cnc5cc(OCCCN6CCN(C7COC7)CC6)ccn45)ncn3)cc2)n1
c = Cn1cc(-c2ccc(CNc3cc(-c4cnc5cc(N6CCCC6)ccn45)ncn3)cc2)cn1
d = Cn1ncc(-c2ccc(CNc3cc(-c4cnc5cc(OCC6CCN(C7COC7)CC6)ccn45)ncn3)cc2)n1
Descending sort on pIC50 required. Present the labels in the sequence the task asks for.
b, d, a, c
